Target: T1, recombinant human PD-L1 (residue 18–239, extracellular domain) (human, UniProt Q9NZQ7 18-239)
T1 construct: Programmed death ligand 1 (PD-L1, B7-H1, CD274), human, residues 18-239, extracellular domain; The limits 18-239 are told for the SPR experiment; No tag is stated; also called programmed death ligand 1; source: bought: Abcam (recombinant, 25 kDa)
Test: SPR; Biacore T200, 25 °C; PD-L1 amine-coupled on a CM5 chip to about 5600 RU; peptides injected in PBS-P (1% DMSO) at 30 µL/min, 60 s contact, 60 s dissociation
Settings: both partners purified
A collection of binders and their measured pKd
Convention used: pKd is expressed as -log10 of the molar concentration.

{"binder": "VLRDNIQGITKPAIR (from the Styela clava trypsin hydrolysate; candidate protein: Histone H4 (Transparent ascidian); the text says that it exactly matches Histone H4 of Ciona savignyi; written as one molecule; also called peptide S2; source: trypsin hydrolysate of Styela clava (AUF); synthetic peptide, GuoPing Pharmaceutical (HTRF, SPR)) [S2]", "pKd": 4.54}

Query binder follows.
For the binder LDVVIHTVTYGDR (from the Ciona intestinalis trypsin hydrolysate; written as one molecule; The parent protein is not known; also called peptide C5; source: trypsin hydrolysate of Ciona intestinalis (AUF); synthetic peptide, GuoPing Pharmaceutical (HTRF, SPR)) [C5] , give its measured pKd value.
4.64
